- Study System: CDK2 (Homo sapiens)
- Construct: endogenous in cells; host or cells: MKN1 cells
- Test Details: CDK2 degradation in MKN1 cells (AlphaLISA)
- Format: cell-based
- Measurement Setup: 14 h incubation
Assay Readout: CDK2 degradation 14 h: Average Dmax %

Worked cases, answers included:
CC1(O)CCCN(c2nc(Nc3ccc(S(=O)(=O)NC4CCC(CN5CCN(c6ccc(C7CCC(=O)NC7=O)c(F)c6)CC5)CC4)cc3C(F)(F)F)ncc2C(F)(F)F)C1 (stereo not drawn)
B (B (>50% -75%))
Cc1cc(S(=O)(=O)C2CC3(CCN(CC4CCN(c5ccc6c(c5F)n(C)c(=O)n6C5CCC(=O)NC5=O)CC4)CC3)C2)ccc1Nc1ncc(C2CC2)c(N2CCCC(C)(O)C2)n1 (stereo not drawn)
D (D (<25%))
Cc1cc(S(=O)(=O)NC2CC(N3CCN(CC4CCN(c5ccc(C6CCC(=O)NC6=O)c(Cl)c5)CC4)CC3)C2)ccc1Nc1ncc(C(F)(F)F)c(N2CCCC(C)(O)C2)n1 (stereo not drawn) [I-713]
A (A (>75% o))
Cc1cc(S(=O)(=O)NCCCN(C)C2CCN(c3cccc4c3n(C)c(=O)n4C3CCC(=O)NC3=O)CC2)ccc1Nc1ncc2cc(Cl)c(=O)n(C3CCCC3)c2n1 (stereo not drawn)
A (A (>75% o))
Cc1cc(S(=O)(=O)NC2CCC(CN3CCN(c4cc(F)cc(NC5CCC(=O)NC5=O)c4)CC3)CC2)ccc1Nc1ncc(C(F)(F)F)c(N2CCCC(C)(O)C2)n1 (stereo not drawn) [I-1122]
A (A (>75% o))
Cc1cc(S(=O)(=O)NCCOC2CCN(CC3CCN(c4ccc5c(c4)n(C)c(=O)n5C4CCC(=O)NC4=O)CC3)CC2)ccc1Nc1ncc2cc(Cl)c(=O)n(C3CCCC3)c2n1 (stereo not drawn)
A (A (>75% o))

QUERY: What is its CDK2 degradation 14 h: Average Dmax % for CDK2 (Homo sapiens)? Entry: Cc1cc(S(=O)(=O)NC2CCC(CN3CCN(c4cc(C)c(C5CCC(=O)NC5=O)cc4F)CC3)CC2)ccc1Nc1ncc(C(F)(F)F)c(N2CCCC(C)(O)C2)n1 (stereo not drawn)
RESULT: A (A (>75% o))

QUERY: What is its CDK2 degradation 14 h: Average Dmax % for CDK2 (Homo sapiens)? Entry: Cc1cc(S(=O)(=O)NC2CCC(CN3CCN(c4ccc(C5CCC(=O)NC5=O)cc4Cl)CC3)CC2)ccc1Nc1ncc(C(F)(F)F)c(N2CCCC(C)(O)C2)n1 (stereo not drawn)
RESULT: A (A (>75% o))

QUERY: What is its CDK2 degradation 14 h: Average Dmax % for CDK2 (Homo sapiens)? Entry: Cc1cc(S(=O)(=O)N[C@H]2C[C@H](N3CCN(CC4CCN(c5cccc6c5n(C)c(=O)n6C5CCC(=O)NC5=O)CC4)CC3)C2)ccc1Nc1ncc(C(F)(F)F)c(N2CCC[C@H](C(F)F)C2)n1 (stereo partly drawn)
RESULT: A (A (>75% o))

QUERY: What is its CDK2 degradation 14 h: Average Dmax % for CDK2 (Homo sapiens)? Entry: Cc1cc(S(=O)(=O)N2CCC(CN(C)C3CCN(c4cccc5c4n(C)c(=O)n5C4CCC(=O)NC4=O)CC3)CC2)ccc1Nc1ncc2cc(Cl)c(=O)n(C3CCCC3)c2n1 (stereo not drawn)
RESULT: A (A (>75% o))

QUERY: What is its CDK2 degradation 14 h: Average Dmax % for CDK2 (Homo sapiens)? Entry: Cc1cc(S(=O)(=O)NCCOCCOCCCc2cccc3c2n(C)c(=O)n3C2CCC(=O)NC2=O)ccc1Nc1ncc2cc(C(F)F)c(=O)n([C@@H]3CCC[C@]3(C)O)c2n1 (stereo partly drawn)
RESULT: A (A (>75% o))

QUERY: What is its CDK2 degradation 14 h: Average Dmax % for CDK2 (Homo sapiens)? Entry: Cc1cc(S(=O)(=O)N[C@H]2C[C@H](N3CCN(CC4CCN(c5ccc(NC6CCC(=O)NC6=O)cc5C)CC4)CC3)C2)ccc1Nc1ncc2ccc(=O)n(C3CCCC3)c2n1 (stereo partly drawn)
RESULT: A (A (>75% o))

QUERY: What is its CDK2 degradation 14 h: Average Dmax % for CDK2 (Homo sapiens)? Entry: C[C@]1(O)CCC[C@H]1n1c(=O)c(C(F)F)cc2cnc(NC3CCN(C(=O)COCCOCCOCCOCCNc4cccc5c4C(=O)N(C4CCC(=O)NC4=O)C5=O)CC3)nc21 (stereo partly drawn)
RESULT: D (D (<25%))

QUERY: What is its CDK2 degradation 14 h: Average Dmax % for CDK2 (Homo sapiens)? Entry: Cc1cc(S(=O)(=O)NC(C)COC2CCC(CN3CCN(c4ccc5c(c4F)n(C)c(=O)n5C4CCC(=O)NC4=O)CC3)CC2)ccc1Nc1ncc(C(F)(F)F)c(C2CCC(C)(O)CC2)n1 (stereo not drawn)
RESULT: B (B (>50% -75%))

QUERY: What is its CDK2 degradation 14 h: Average Dmax % for CDK2 (Homo sapiens)? Entry: Cc1cc(S(=O)(=O)N[C@H]2C[C@H](N3CCN(CC4CCN(c5cccc6c5n(C)c(=O)n6C5CCC(=O)NC5=O)CC4)CC3)C2)ccc1Nc1ncc(C(F)(F)F)c(N2CCC[C@@H](C(F)F)C2)n1 (stereo partly drawn)
RESULT: A (A (>75% o))

QUERY: What is its CDK2 degradation 14 h: Average Dmax % for CDK2 (Homo sapiens)? Entry: Cc1cc(S(=O)(=O)C2CC3(CCN(CC4CCN(c5ccc6c(c5F)n(C)c(=O)n6C5CCC(=O)NC5=O)CC4)CC3)C2)ccc1Nc1ncc2cc(Cl)c(=O)n(C(C)C)c2n1 (stereo not drawn)
RESULT: A (A (>75% o))

QUERY: What is its CDK2 degradation 14 h: Average Dmax % for CDK2 (Homo sapiens)? Entry: Cc1cc(S(=O)(=O)N[C@H]2C[C@H](N3CCN(CC4CCN(c5ccc6c(c5)n(C)c(=O)n6C5CCC(=O)NC5=O)CC4)CC3)C2)ccc1Nc1ncc2cc(Cl)c(=O)n(C(C)C)c2n1 (stereo partly drawn)
RESULT: A (A (>75% o))

QUERY: What is its CDK2 degradation 14 h: Average Dmax % for CDK2 (Homo sapiens)? Entry: Cc1cc(S(=O)(=O)N[C@H]2CC[C@H](CN3CCN(c4ccc(C5CCC(=O)NC5=O)cc4F)C[C@@H]3C)CC2)ccc1Nc1ncc(C(F)(F)F)c(N2CCC[C@](C)(O)C2)n1 (stereo partly drawn)
RESULT: A (A (>75% o))

QUERY: What is its CDK2 degradation 14 h: Average Dmax % for CDK2 (Homo sapiens)? Entry: CC1CC(NS(=O)(=O)c2ccc(Nc3ncc(C(F)(F)F)c(N4CCCC(C)(O)C4)n3)c(F)c2)CCN1CC1CCN(c2ccc(C3CCC(=O)NC3=O)c(F)c2)CC1 (stereo not drawn) [I-1060]
RESULT: A (A (>75% o))

QUERY: What is its CDK2 degradation 14 h: Average Dmax % for CDK2 (Homo sapiens)? Entry: Cc1cc(S(=O)(=O)NC23CCC(CN4CCN(c5ccc(C6CCC(=O)NC6=O)cc5)CC4)(CC2)CC3)ccc1Nc1ncc(C(F)(F)F)c(N2CCC[C@](C)(O)C2)n1 (stereo partly drawn)
RESULT: A (A (>75% o))

----------
- Study System: CDK2 (Homo sapiens, UniProt P24941)
- Construct: endogenous in cells; host or cells: MKN1 cells
- Test Details: CDK2 degradation in MKN1 cells (AlphaLISA)
- Assay type: cell-based
- Measurement Setup: 14 h incubation, read-out: CDK2 degradation 14 h: Mean external-Abs DC50
Assay Readout: DC50

Cc1cc(S(=O)(=O)N2CCC(CN(C)C3CCN(c4cccc5c4n(C)c(=O)n5C4CCC(=O)NC4=O)CC3)CC2)ccc1Nc1ncc2cc(C(F)(F)F)c(=O)n(C3CCCC3)c2n1 (centres unmarked)
< 100 nM
Cc1cc(S(=O)(=O)NCCOC2CCC(CN3CCN(c4ccc(NC5CCC(=O)NC5=O)cc4C)CC3)CC2)ccc1Nc1ncc2cc(Cl)c(=O)n(C3CCCC3)c2n1 (centres unmarked)
< 100 nM
Cc1cc(S(=O)(=O)NC2CCC(CN3CCN(c4ccc(C5CCC(=O)NC5=O)cc4Cl)CC3)CC2)ccc1Nc1ncc(C(F)(F)F)c(N2CCCC(C)(O)C2)n1 (centres unmarked)
< 100 nM
Cc1cc(S(=O)(=O)NCCO[C@H]2CC[C@H](CN3CCC(c4ccc5c(c4)n(C)c(=O)n5C4CCC(=O)NC4=O)CC3)CC2)ccc1Nc1ncc2cc(C(F)F)c(=O)n(C(C)C)c2n1 (some centres unmarked)
< 100 nM
Cc1cc(S(=O)(=O)N2CCC(OCCCc3ccc4c(c3)n(C)c(=O)n4C3CCC(=O)NC3=O)CC2)ccc1Nc1ncc2ccc(=O)n(C3CCCC3)c2n1 (centres unmarked)
> 1000 nM

QUERY: Requested field: DC50. Item: Cc1cc(S(=O)(=O)C2CC3(CCN(CC4CCN(c5ccc6c(c5F)n(C)c(=O)n6C5CCC(=O)NC5=O)CC4)CC3)C2)ccc1Nc1cc2cnc(Cl)cc2n(C2CCCC2)c1=O (centres unmarked)
RESULT: > 1000 nM

QUERY: Requested field: DC50. Item: Cn1c(=O)n(C2CCC(=O)NC2=O)c2ccc(N3CCC(CN4CCC5(CC4)CC(S(=O)(=O)c4ccc(Nc6ncc(C(F)(F)F)c(N7CCCC(C)(O)C7)n6)c(Cl)c4)C5)CC3)c(F)c21 (centres unmarked)
RESULT: < 100 nM

QUERY: Requested field: DC50. Item: Cc1cc(S(=O)(=O)N2CCC(CN(C)C3CCN(c4cccc5c4n(C)c(=O)n5C4CCC(=O)NC4=O)CC3)CC2)ccc1Nc1ncc2cc(Cl)c(=O)n(C3CCCC34CC4)c2n1 (centres unmarked)
RESULT: < 100 nM

QUERY: Requested field: DC50. Item: Cc1cc(S(=O)(=O)NC2(C)CCN(CC3CCN(c4ccc(C5CCC(=O)NC5=O)c(Cl)c4)CC3)CC2)ccc1Nc1ncc(C(F)(F)F)c(N2CCC[C@](C)(O)C2)n1 (some centres unmarked)
RESULT: < 100 nM

QUERY: Requested field: DC50. Item: Cc1cc(S(=O)(=O)NCCOC2CC3(C2)CN(CCCc2ccc4c(c2)n(C)c(=O)n4C2CCC(=O)NC2=O)C3)ccc1Nc1ncc2ccc(=O)n(C3CCCC3)c2n1 (centres unmarked)
RESULT: < 100 nM

QUERY: Requested field: DC50. Item: Cc1cc(S(=O)(=O)NCCO[C@H]2CC[C@H](CN3CC(c4ccc5c(c4)n(C)c(=O)n5C4CCC(=O)NC4=O)C3)CC2)ccc1Nc1ncc2cc(Cl)c(=O)n(C3CCCC3)c2n1 (some centres unmarked)
RESULT: < 100 nM
